# Test system: OVCAR-5 ovarian
# TEST DETAILS: NCI-60 one-dose screen, 48 h (100 = growth as untreated, 0 = no growth, -100 = all killed)
# CONDITION SET: 10 µM unless noted
The panel holds about 83,000 compounds, 20% with a hit somewhere; the sample as a whole holds those more often.
We begin with a simple list: items and their reported growth.
ATTRIBUTE MEASURED: growth (%)

1) C=C1C(=O)O[C@H]2[C@H]1CC/C(CNC(=O)Cc1c[nH]c3ccccc13)=C\CC[C@@]1(C)O[C@@H]21 :: 46.2
2) CCOC(=O)C/C(=N\Nc1cc(=O)[nH]c2ccc(C)cc12)C(=O)OCC :: 104
3) CC1(C)N=C(N)N=C(N)N1c1cc(Cl)ccc1Cl :: 59.2
4) CN(C)Cc1cc(C(C)(C)C)cc(Br)c1O :: 107
5) C1CCC(N2CN3c4nonc4N4CN(C5CCCCC5)CN5c6nonc6N(C2)C3C45)CC1 (stereo not given) :: 102
